Reference for the values: PubChem BioAssay (NCI)

// reported growth inhibition per item
Assay: NCI Yeast Anticancer Drug Screen. Data for the CLN2oe strain (AID 163);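 also: 0% = growth of vehicle-only control cultures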
Details: S. cerevisiae CLN2oe strain, at 1.2 µM, hits give high values
Compounds without any hit were thinned out: in the full panel of roughly 79,000, 15% have a hit.
Express the result in % but write the number alone.

>>> number("Cc1ccc(S(=O)(=O)Oc2cc(Cl)c(Cl)cc2Cl)cc1")
-2
>>> number("COc1ccc(OC)c2cc3ccccc3cc12")
12
>>> number("CCCCOC(=O)N[C@H]1CCc2cc(OC)c(OC)c(OC)c2-c2ccc(SC)c(=O)cc21")
-2

Req: Identify measured growth inhibition associated with Cc1cc(S(=O)(=O)/N=C(/NN)NNc2cccc(C(F)(F)F)n2)c(S)cc1Cl
Resp: 3

Req: Please give the documented growth inhibition of O=C(CCCN1CCC2(CC1)CC(=O)N(N1CCCCCC1)C2=O)c1ccc(F)cc1
Resp: 49

Req: Name the recorded growth inhibition of the item [N-]=N[N+]#I1OC(C(F)(F)F)(C(F)(F)F)c2ccccc21 in your answer.
Resp: 40

Req: Please give the documented growth inhibition of O=C1Nc2ccc(Cl)c(I)c2C1=O
Resp: 5

Req: For the compound NC(=O)NN=C(CS)CS , give its reported growth inhibition.
Resp: -9

Req: Check the records and state growth inhibition for NCCNc1ccc(NCCN)c2c1C(=O)c1c(O)ccc(O)c1C2=O
Resp: 28

Req: Consider the compound Cc1ccc2ccc3cccc4ccc1c2c34 and give its recorded growth inhibition.
Resp: -7

Req: Please give measured growth inhibition of the following entry: Cc1ccc(NN(NC(=O)OC(C)C)C(=O)OC(C)C)cc1
Resp: -3

Req: Give recorded growth inhibition. O=C1C=CC(=O)c2c(O)c(Nc3ccc(OC(F)(F)F)cc3)c(Cl)c(O)c21
Resp: -8

---

Assay: NCI Yeast Anticancer Drug Screen. Data for the rad14 strain (AID 159);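 also: 0% = growth of vehicle-treated control cultures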
Details: S. cerevisiae rad14 strain growth inhibition; at 100.0 µM
The panel holds about 79,000 compounds, 15% with a hit somewhere; the sample as a whole holds those more often. Activity calls are given as the source filed them. Rule as the data show it: active = growth inhibition above about 70%; inactive = the rest.
Choose the fitting class; nothing outside active, inactive is accepted.

>>> cat("CC(C)c1cc(C(C)C)c(O)c(C([O-])[O-])c1.CC(C)c1cc(C(C)C)c(O)c(C([O-])[O-])c1.CC(C)c1cc(C(C)C)c(O)c(C([OH2+])[OH2+])c1.CC(C)c1cc(C(C)C)c(O)c(C([OH2+])[OH2+])c1.[Cu+2].[Cu+2].[OH3+].[OH3+]")
"active"
>>> cat("O=C(Nc1ccccc1)OCCc1ccc(Cl)c(Cl)c1")
"inactive"

Req: Which outcome was entered for the compound CCOC(=O)c1cc([N+](=O)[O-])cc([N+](=O)[O-])c1Sc1ncnc2nc[nH]c12 in this test?
Resp: active

Req: Outcome logged for CCCCOC(=O)N[C@H]1CCc2cc(OC)c(OC)c(OC)c2-c2ccc(SC)c(=O)cc21 in this assay:
Resp: active

---

Assay: NCI Yeast Anticancer Drug Screen. Data for the rad14 strain (AID 159);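 also: 0% = growth of vehicle-treated control cultures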
Conditions: S. cerevisiae rad14 strain growth inhibition; at 11.0 µM; hits give high values
This is part of a sample that, as a whole, favours compounds with a hit. Of some 79,000 tested, about 15% had one in any assay.
measurement-kind: growth inhibition (%)
Kindly answer with a numeric value in %, unit omitted.

# example entries with known answers
>>> number("CCOC(=O)C1=C(C(=O)c2ccccc2)C(c2ccccc2[N+](=O)[O-])C(C(=O)c2ccccc2)=C(C(=O)OCC)N1")
8
>>> number("CC(C)c1ccccc1NC(=O)/C(Cl)=C(\\Cl)C(=O)O")
4
>>> number("CC(CC(C)(C)[N+](C)(C)C)[N+](C)(C)C (stereo not drawn)")
3
>>> number("COc1cc2ccc(/C=C\\[N+](=O)[O-])cc2cc1OC")
-18

Req: Report growth inhibition for CN(C)c1ccc(C(C#N)=C(C#N)C#N)cc1
Resp: 10

Req: Given the compound CCN(CC)CC(O)c1ccc2ccc3ccccc3c2c1 (stereo not drawn) , write its reported growth inhibition.
Resp: 35

Req: Given O=C(O)C1OC1(c1cccc(Cl)c1)c1ccccc1Cl (stereo not drawn) , respond with its growth inhibition.
Resp: -11

Req: Input CC(=O)OCC(=O)C1(O)CCC2C3CCC4CCCCC4(C)C3CCC21C (stereo not drawn) , output reported growth inhibition.
Resp: 8

Req: Tell me growth inhibition reported for CC(C)[N+]([O-])(CCCNc1c2ccccc2nc2cccc([N+](=O)[O-])c12)C(C)C
Resp: 98

Req: State its growth inhibition for this compound: CC1(C)[C@@H]2CC[C@]1(C)[C@H](OC(=O)CSC#N)C2
Resp: 12

Req: Please list growth inhibition recorded for the compound COc1cccc2nc3ccccc3nc12
Resp: 2

Req: Complete the entry with growth inhibition for CC[n+]1ccc2c(C)c3[nH]c4ccc(O)cc4c3c(C)c2c1
Resp: -23

---

Assay: NCI Yeast Anticancer Drug Screen. Data for the wt1 strain (AID 149);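 also: 0% = growth of vehicle-treated wt1 cultures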
Conditions: S. cerevisiae wt1 strain (SPY 50644) growth inhibition; at 3.7 µM; hits give high values
The panel holds about 79,000 compounds, 15% with a hit somewhere; the sample as a whole holds those more often.
Recorded growth inhibition, one value per entry.
State the answer as a number, implicitly in %.

Req: Kindly indicate its recorded growth inhibition. Item: CCOC(=O)c1cnc2cc(C(F)(F)F)ccc2c1N=[N+]=[N-]
Resp: 4

Req: Supply growth inhibition value. Item: Cn1ccnc1Oc1ccc(Cl)cc1
Resp: 5

Req: For the compound O=C1CSC(/C=C/c2ccccc2)N1c1ccc(-c2ccc(-n3c(-c4ccccc4)nc4ccccc4c3=O)cc2)cc1 (stereo not given) , report growth inhibition.
Resp: -2

Req: Look up growth inhibition of Clc1cccc(C(Nc2nncs2)Nc2nncs2)c1Cl and report it.
Resp: -1

Req: Input CCC/C(Cl)=N\OC(=O)Nc1ccc(Br)cc1 , output reported growth inhibition.
Resp: 14

Req: Report measured growth inhibition; entry is NCCNc1ccc(NCCN)c2c1C(=O)c1c(O)ccc(O)c1C2=O
Resp: 9

Req: Output measured growth inhibition for this item: CCCCc1cc(O)ccc1O
Resp: -2

Req: Please report the measured growth inhibition for CSC1=NNC(SC)=NN1
Resp: -9

Req: Indicate its recorded growth inhibition; the compound in question is COc1ccc(O)c(/C=N\Nc2ccccc2)c1
Resp: 5

Req: Please list growth inhibition recorded for the compound CCN(CC)CC[n+]1ccc2c(C)c3[nH]c4ccc(O)cc4c3c(C)c2c1
Resp: -1

Req: Fill in growth inhibition for record CN(C)C[C@H]1CC[C@@H](CN(C)C)C1=O
Resp: 25

---

Test: NCI Yeast Anticancer Drug Screen. Data for the sgs1 strain (AID 173);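 also: 0% = growth of vehicle-only control cultures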
Settings: S. cerevisiae sgs1 mutant, at 11.0 µM, hits give high values
This is part of a sample that, as a whole, favours compounds with a hit. Of some 79,000 tested, about 15% had one in any assay.
Catalogue of growth inhibition readings, one per entry.
Your answer is read as %, so omit the unit and give the number.

// known answers, use as guide
>>> number("Cc1nn(-c2cc(Cl)ccc2[N+](=O)[O-])c(C)c1Cl")
-1
>>> number("CC(C)c1ccccc1NC(=O)/C(Cl)=C(\\Cl)C(=O)O")
5
>>> number("O=C1C=CC(=Nc2ccc3c(c2)Cc2cc(NC(=O)C(F)(F)F)ccc2-3)O1")
34
>>> number("CC1OCC2OC(C)OC(C3C4=C(CC(C)(C)CC4=O)OC4=C3C(=O)CC(C)(C)C4)C2O1 (stereo not drawn)")
9
>>> number("CN1CCc2ccccc2C1Cc1ccccc1NC(=O)c1sc2ccccc2c1Cl (stereo not drawn)")
18
>>> number("CC(C)C1=CCC2C(=C1)CCC1C(C)(C(=O)O)CCCC21C (stereo not drawn) (tested in a mixture with another compound)")
23
>>> number("CC(CC(C)(C)[N+](C)(C)C)[N+](C)(C)C (stereo not drawn)")
1
>>> number("O=C1C(=O)c2ccccc2C=C1[N+](=O)[O-]")
30

Req: Kindly indicate its recorded growth inhibition. Item: O=C(Nc1ccc(Cl)cc1)OCC#CCCl
Resp: 98

---

Test: NCI Yeast Anticancer Drug Screen. Data for the CLN2oe strain (AID 163);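 also: 0% = growth of vehicle-only control cultures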
Details: S. cerevisiae CLN2oe strain, at 3.7 µM, hits give high values
Method: Growth inhibition of yeast strains with defined genetic alterations is measured as a screen for potential anti-cancer activity. Selected strains with alterations in DNA damage repair or cell cycle control were exposed to compounds and growth inhibition was measured relative to vehicle treated controls. The strain used in this assay is CLN2oe
The panel holds about 79,000 compounds, 15% with a hit somewhere; the sample as a whole holds those more often.
measurement-kind: growth inhibition (%)
The reply should be a number in %, with the unit left off.

Req: Give recorded growth inhibition. O=C1C(Nc2ccccc2)=C(Oc2ccccc2)C(=O)c2ccccc21
Resp: -2
